Numbers sourced from PubChem BioAssay (Tox21).

Assay Text: qHTS assay to identify small molecule agonists of the sonic hedgehog signaling (Shh) pathway - cell viability counter screen (AID 1259366); also: % is scaled to controls: 0 for no effect and ±100 for the full control effect; nearly all actives have a fitted effect of over 50% in size
Settings: NIH/3T3 Gli1-Luc viability, CellTiter-Fluor, 24 h; series mostly up to 92.4 µM
Records with an inconclusive call do not appear. Calls of active or inactive are those of the source. Calls follow the shape of the dose curve; as a rule, active = well fitted cell-killing curve with a large enough effect in the repeat runs; inconclusive = weak or mixed curves, or effect the other way; inactive = flat fitted curve, though single readings scatter.

Mol | viability change, negative = cytotoxic
Cc1cc(C(C)(C)C)c(O)c(C)c1CC1=NCCN1 | inactive
CCn1ccc(NS(=O)(=O)c2ccc(N)cc2)nc1=O | inactive
O=P(O)(O)OP(=O)(O)O | inactive

###

Assay Text: qHTS assay to identify small molecule antagonists of the estrogen receptor alpha (ER-alpha) signaling pathway using the BG1 cell line (AID 743080);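 also: BG1 cells stimulated with 17beta-estradiol alongside compound; nearly all actives have a fitted effect of over 25% in size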
Settings: BG1Luc4E2 ERE-luciferase antagonist mode, luminescence; series mostly up to 70.3 µM
Results filed as inconclusive are left out. Activity calls are given as the source filed them. Calls follow the shape of the full dose curve.
Possible outcomes: 1 (yes) = active, 0 (no) = inactive

Molecule | Assigned Category
O=C(CS(=O)Cc1ccco1)NC/C=C\COc1cc(CN2CCCCC2)ccn1 (stereo not given) | 0 (no)
O=C1c2ccccc2C(=O)c2cc(S(=O)(=O)O)ccc21 | 0 (no)
C[C@@H](O)[C@H]1C(=O)N2C(C(=O)O)=C(SCCN=CN)C[C@H]12 | 0 (no)
Cc1ccc(S(=O)(=O)O)c(C)c1 | 0 (no)
COc1ccc(S(=O)(=O)N2c3ccc(Cl)cc3[C@@](O)(c3ccccc3Cl)[C@H]2C(=O)N2CCC[C@@H]2C(N)=O)cc1OC | 0 (no)
CC1(C)S[C@@H]2[C@H](N=CN3CCCCCC3)C(=O)N2[C@H]1C(=O)O | 0 (no)
CCCCC(CC)COCCO (stereo not given) | 0 (no)
O=C(NCCc1c[nH]c2ccccc12)c1cccnc1 | 0 (no)
CCCCCCOc1ccccc1C(N)=O | 1 (yes)
CC(=O)NCc1c(I)c(NC(C)=O)c(I)c(C(=O)O)c1I | 0 (no)

###

Experimental Target: Nuclear receptor subfamily 1 group I member 2 (Rattus norvegicus) (UniProt Q9R1A7)
Sequence (Q9R1A7 whole entry, looked up): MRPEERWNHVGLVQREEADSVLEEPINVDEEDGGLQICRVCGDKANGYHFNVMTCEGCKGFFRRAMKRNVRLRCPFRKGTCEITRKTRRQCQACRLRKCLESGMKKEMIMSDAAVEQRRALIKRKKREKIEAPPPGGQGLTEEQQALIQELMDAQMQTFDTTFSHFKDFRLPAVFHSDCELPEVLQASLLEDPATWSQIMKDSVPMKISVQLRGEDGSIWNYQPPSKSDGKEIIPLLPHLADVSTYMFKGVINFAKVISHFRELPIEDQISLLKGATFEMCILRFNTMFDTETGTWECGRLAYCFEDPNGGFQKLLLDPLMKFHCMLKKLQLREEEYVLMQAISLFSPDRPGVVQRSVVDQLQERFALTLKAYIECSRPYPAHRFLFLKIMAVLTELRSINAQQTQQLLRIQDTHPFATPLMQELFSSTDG
Assay Text: Rat pregnane X receptor (rPXR) activation by small molecules, qHTS assay (AID 1346983); also: % is scaled to controls: 0 for no effect and ±100 for the full control effect; nearly all actives have a fitted effect of over 20% in size
Settings: rPXR luciferase reporter cells, One-Glo luminescence, 24 h; stronger effect = higher value
Records with an inconclusive call do not appear.
Experimental Readout: max activation (%)

Compound | Measured
CCCCCCOc1ccccc1C(N)=O | 6.49
COC(=O)c1ccccc1C(=O)c1ccc(OCCN2CCCCC2)cc1 | -0.568
C[C@H](CCC(=O)O)[C@H]1CC[C@H]2[C@@H]3C(=O)C[C@@H]4CC(=O)CC[C@]4(C)[C@H]3CC(=O)[C@]12C | -0.558
CC(C)NCC(O)COc1ccc(COCCOC(C)C)cc1 (stereo not drawn) | -3.07
CC(=O)N[C@@H](CCC(=O)O)C(=O)O | -1.49
O=C(O)Cc1cn(-c2ccccc2)nc1-c1ccc(Cl)cc1 | -1.93
O=P(O)(O)OP(=O)(O)O | 1.84
CO[C@@H]1[C@@H](OC(N)=O)[C@@H](O)[C@H](Oc2ccc3c(O)c(NC(=O)c4ccc(O)c(CC=C(C)C)c4)c(=O)oc3c2C)OC1(C)C | -3.79

###

Experimental Target: Cytochrome P450 1A2 (Homo sapiens)
Assay Text: Cytochrome P450 Family 1 Subfamily A Member 2 (CYP1A2) small molecule antagonists: luciferase reporter qHTS assay (AID 1671199); also: nearly all actives have a fitted effect of over 50% in size
Settings: P450-Glo CYP1A2 enzyme, luciferin luminescence, 1 h; series mostly up to 53 µM
Excerpt: National Center for Advancing Translational Sciences [NCATS] U.S. Environmental Protection Agency [EPA] National Institutes of Environmental Health Sciences [NIEHS] National Toxicology Program [NTP] U.S. Food and Drug Administration [FDA] Cytochrome P450 (CYP) enzymes are membrane-bound hemeproteins that play a key role in metabolism of drugs and xenobiotics. […] The luciferin products formed are detected with a luciferin detection reagent, and the amount of light produced is proportional to CYP activity. […]
Results filed as inconclusive are left out. Calls of active or inactive are those of the source. Calls follow the shape of the dose curve; as a rule, active = well fitted inhibition curve with a large enough effect in the repeat runs; inconclusive = weak or mixed curves; inactive = no such curve, though single readings can be large or run the other way.
Possible outcomes: active, inactive

Molecule | Assigned Category
O=C1c2ccccc2C(=O)C1c1ccccc1 | inactive
CCC(C)NC(N)=O (centres undefined) | inactive
CCCCCOC(=O)CCC | inactive
OCCC(F)(F)C(F)(F)C(F)(F)C(F)(F)C(F)(F)C(F)(F)C(F)(F)C(F)(F)F | inactive
Cc1cc(C(C)(C)C)c(O)c(C)c1CC1=NCCN1 | inactive
CCCCCCOc1ccccc1C(N)=O | active
CC(C)CC(C)CC(C)CC(C)COC(=O)c1ccccc1C(=O)OCC(C)CC(C)CC(C)CC(C)C (centres undefined) | active
COc1cc(N)ccc1C | active
CN=C(NC#N)Nc1ccc(C2=NNC(=O)CC2C)cc1 (centres undefined) | inactive
CC(C)N(c1ccccc1)C(C)C | inactive
O=S(=O)(O)CCN1CCN(CCO)CC1 | inactive
CCCCOC(=O)c1ccccc1 | inactive
CO[C@@H]1[C@@H](OC(N)=O)[C@@H](O)[C@H](Oc2ccc3c(O)c(NC(=O)c4ccc(O)c(CC=C(C)C)c4)c(=O)oc3c2C)OC1(C)C | inactive
NS(=O)(=O)c1cc2c(cc1Cl)CN(C1CCCCC1)C2=O | inactive

###

Experimental Target: Nuclear receptor subfamily 1 group I member 3 (Homo sapiens) (UniProt Q14994)
Sequence (Q14994 whole entry, looked up): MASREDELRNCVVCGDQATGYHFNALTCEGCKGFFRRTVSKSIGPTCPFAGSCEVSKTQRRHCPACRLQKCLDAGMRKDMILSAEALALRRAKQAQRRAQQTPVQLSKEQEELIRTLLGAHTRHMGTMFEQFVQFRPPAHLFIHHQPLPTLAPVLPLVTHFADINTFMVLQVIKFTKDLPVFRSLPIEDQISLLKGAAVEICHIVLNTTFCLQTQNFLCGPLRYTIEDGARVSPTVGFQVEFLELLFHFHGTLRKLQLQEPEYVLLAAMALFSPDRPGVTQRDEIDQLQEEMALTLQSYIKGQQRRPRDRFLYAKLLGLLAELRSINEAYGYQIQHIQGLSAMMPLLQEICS
Assay Text: qHTS assay to identify small molecule antagonists of the constitutive androstane receptor (CAR) signaling pathway (AID 1224838);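 also: HepG2 cells stably expressing hCAR with CYP2B6 luciferase reporter stimulated by CITCO; % is scaled to controls: 0 for no effect and ±100 for the full control effect; nearly all actives have a fitted effect of over 40% in size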
Settings: HepG2-CYP2B6-hCAR luciferase, CITCO-stimulated, 24 h; series mostly up to 92.4 µM
Records with an inconclusive call do not appear. The source made the active and inactive calls. The call rests on the fitted dose curve; in most records, active means well fitted inhibition curve with a large enough effect in the repeat runs; inconclusive means weak or mixed curves, or effect the other way; inactive means no such curve, though single readings can be large or run the other way.

Mol | activity, negative = inhibition
Cc1[nH]cnc1-c1ccc(Cl)cc1 | inactive
CC(C)(C)NC(N)=O | inactive
Cc1ccc(C=O)cc1C | inactive

###

Assay Text: qHTS assay to identify small molecule antagonists of the farnesoid-X-receptor (FXR) signaling pathway - cell viability counter screen (AID 743221); also: % is scaled to controls: 0 for no effect and ±100 for the full control effect; nearly all actives have a fitted effect of over 50% in size
Settings: FXR-bla HEK293T viability, CellTiter-Glo luminescence, 16 h; series mostly up to 62.6 µM
Records with an inconclusive call do not appear. Active and inactive are the calls of the source. The call rests on the fitted dose curve; in most records, active means well fitted cell-killing curve with a large enough effect in the repeat runs (not every such curve was filed as active); inconclusive means weak or mixed curves, or effect the other way; inactive means no such curve, though single readings can be large or run the other way.
Experimental Readout: activity change, negative = cytotoxicity

Compound | Measured
CN(C)C(=O)CNC(=O)Cc1ccccc1 | inactive
COc1ccc(S(=O)(=O)N2c3ccc(Cl)cc3[C@@](O)(c3ccccc3Cl)[C@H]2C(=O)N2CCC[C@@H]2C(N)=O)cc1OC | inactive
O=C(NCCc1c[nH]c2ccccc12)c1cccnc1 | inactive
CC(C)c1ccc2cc(C(C)C)ccc2c1 | inactive
N#Cc1ccc(C(=O)O)cc1 | inactive
COc1ccc2nc(SCc3ncc(C)c(OC)c3C)[nH]c2c1 | inactive
Cc1ccccc1OCC(O)CO (stereo not drawn) | inactive
Cc1cccc(OCC(O)CNC(C)(C)C)c1C (stereo not drawn) | inactive
O=S(=O)(O)c1cc(O)c2ccc(Nc3ccccc3)cc2c1 | inactive
C=C(C)C(=O)OCCNC(C)(C)C | inactive
C[C@@H]1O[C@@H](O[C@@H]2[C@@H](O)[C@H](OCCc3ccc(O)c(O)c3)O[C@H](CO[C@@H]3O[C@H](CO)[C@@H](O)[C@H](O)[C@H]3O)[C@H]2OC(=O)/C=C/c2ccc(O)c(O)c2)[C@H](O)[C@H](O)[C@H]1O | inactive
Nc1ncnc(Nc2ccccc2)n1 | inactive
CCCCCCCCSCC | inactive

###

Assay Text: qHTS assay to test for compound auto fluorescence at 460 nm (blue) in HEK293 cell free culture (AID 720681); also: % is scaled to controls: 0 for no effect and ±100 for the full control effect
Settings: cell-free medium, autofluorescence 405/460 nm (blue); series mostly up to 91.3 µM
Calls of active or inactive are those of the source. Calls follow the shape of the dose curve; as a rule, active = well fitted curve in the direction sought with a large enough effect in the repeat runs; inconclusive = weak or mixed curves; inactive = flat fitted curve, though single readings scatter.

Mol | fluorescence, % of fluorescent control
On1nnc2ccccc21 | inactive
OCCN(CCO)c1cccc(Cl)c1 | inactive
COc1ccc(-c2cc(=O)c3c(O)cc(O[C@@H]4O[C@H](CO[C@@H]5O[C@@H](C)[C@H](O)[C@@H](O)[C@H]5O)[C@@H](O)[C@H](O)[C@H]4O)cc3o2)cc1O | inactive
N[C@@H](CCC(=O)N[C@@H](CS)C(=O)NCC(=O)O)C(=O)O | inactive
Nc1ccc(S(=O)(=O)Nc2ccc(Cl)nn2)cc1 | inactive
CC(C)CC(=O)O | inactive

###

Experimental Target: Cytochrome P450 2D6 (Homo sapiens) (UniProt P10635)
Sequence (P10635 whole entry, looked up): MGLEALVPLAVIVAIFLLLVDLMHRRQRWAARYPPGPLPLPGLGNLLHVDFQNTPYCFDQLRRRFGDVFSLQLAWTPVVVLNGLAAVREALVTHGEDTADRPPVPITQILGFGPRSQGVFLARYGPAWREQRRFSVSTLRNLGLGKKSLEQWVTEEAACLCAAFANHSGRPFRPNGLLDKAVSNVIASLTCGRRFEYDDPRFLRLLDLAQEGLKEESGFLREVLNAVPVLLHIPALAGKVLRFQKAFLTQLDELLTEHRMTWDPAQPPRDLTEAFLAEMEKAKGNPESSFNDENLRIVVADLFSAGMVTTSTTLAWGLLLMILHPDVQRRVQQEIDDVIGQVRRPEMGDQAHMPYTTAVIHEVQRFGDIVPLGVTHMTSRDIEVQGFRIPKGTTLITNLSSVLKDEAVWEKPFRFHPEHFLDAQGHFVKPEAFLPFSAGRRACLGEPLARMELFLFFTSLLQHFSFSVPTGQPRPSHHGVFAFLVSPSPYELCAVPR
Assay Text: Cytochrome P450 Family 2 Subfamily D Member 6 (CYP2D6) small molecule antagonists: luciferase reporter qHTS assay (AID 1671196); also: nearly all actives have a fitted effect of over 50% in size
Settings: P450-Glo CYP2D6 enzyme assay, luciferin luminescence, 1 h; series mostly up to 115 µM
Records with an inconclusive call do not appear. Activity calls are given as the source filed them. Calls follow the shape of the dose curve; as a rule, active = well fitted inhibition curve with a large enough effect in the repeat runs; inconclusive = weak or mixed curves; inactive = no such curve, though single readings can be large or run the other way.
Possible outcomes: True = active, False = inactive

Compound | Assigned Category
CC(CC=O)CCCC(C)(C)O (configuration not stated) | True
C[C@@H]1O[C@@H](O[C@@H]2[C@@H](O)[C@H](OCCc3ccc(O)c(O)c3)O[C@H](CO[C@@H]3O[C@H](CO)[C@@H](O)[C@H](O)[C@H]3O)[C@H]2OC(=O)/C=C/c2ccc(O)c(O)c2)[C@H](O)[C@H](O)[C@H]1O | False
FC(F)(F)c1ccccc1-n1ccnc1 | True
CC(=O)c1ccc2c(c1)Cc1ccccc1-2 | False
CC(=O)c1sc(C)nc1C | False
CC1=CCC(C(C)C)=CC1 | False
C[C@@H](O)[C@H]1C(=O)N2C(C(=O)O)=C(SCCN=CN)C[C@H]12 | False
CCOC(=O)c1ccc(OC(=O)CCCCCN=C(N)N)cc1 | True
CC(C)C(=O)OCCc1ccccc1 | False
CC(C)(C)NC(N)=O | False
CC(C)CCCCOC(=O)c1ccccc1C(=O)OCCCCC(C)C | False
Cc1ccc2c(c1)OCC(=O)CO2 | True
N#Cc1ccc(C(=O)O)cc1 | True
CCC(CC)CO | False
BrCc1cccc(Oc2ccccc2)c1 | True
NS(=O)(=O)c1cc2c(cc1Cl)CN(C1CCCCC1)C2=O | False
CC(S)C(=O)NCC(=O)O (configuration not stated) | False
Cc1cccc(OCC(O)CNC(C)(C)C)c1C (configuration not stated) | True
Cc1ccccc1N=O | False
CCOC(=O)c1ncn2c1CN(C)C(=O)c1cc(F)ccc1-2 | False
Cc1cccc(C)c1NC(=O)c1ccccc1C(=O)O | False
CN=C(NC#N)Nc1ccc(C2=NNC(=O)CC2C)cc1 (configuration not stated) | False
